System: NCI-H460 lung
As shown below, each of these compounds has a reported GI50 value.

recordSmiles	GI50
O=C1C=CC(=O)c2c(O)c(N3CCN(CCOCCO)CC3)c(Cl)c(O)c21	1.57 µM
C=[CH][Sn]([CH]=C)([O]c1cccc2cccnc12)[O]c1cccc2cccnc12	3.11 µM
CC(=O)N(Cc1ccccc1)c1ccccc1I(=O)=O	22.8 µM

###

Test system: NCI-H460 lung
Experiment: NCI tumour cell line growth inhibition, 48 h

compound	testedOn	TGI
CSc1ccc(C(=O)C(=O)c2ccc(SC)s2)s1	NCI-H460 lung	> 10 µM
CO[C@H]1C[C@H](O[C@H]2CC[C@]3(C=O)[C@H]4CC[C@]5(C)[C@@H](C6=CC(=O)OC6)CC[C@]5(O)[C@@H]4CC[C@]3(O)C2)O[C@H](C)[C@H]1O	NCI-H460 lung	0.176 µM
CNC(=O)CN(CC(N)=O)C(N)=O	NCI-H460 lung	> 100 µM
COc1ccc(CCN=C2CCC(C(=O)NCCc3ccc(OC)c(OC)c3)N2)cc1OC (centres undefined)	NCI-H460 lung	> 100 µM
O=C1C=CC2(C=C1)C[C@H](NC(=O)C(F)(F)F)C(=O)O2	NCI-H460 lung	> 100 µM
CC1CCC2N(C1)CC1C3(O)CC45OC6(O)C(O)CCC4(C)C6CCC5C3(O)CC(O)C1(O)C2(C)O (centres undefined)	NCI-H460 lung	> 100 µM
N[C@@H]1CCCC[C@@H]1N.O=P([O-])([O-])CN(CP(=O)([O-])[O-])CP(=O)([O-])[O-].[Pt+2]	NCI-H460 lung	> 100 µM
CC1(C2CCC3(C)OC3C2)CO1 (centres undefined)	NCI-H460 lung	> 100 µM
COc1cc2cc3c4c(cc(OC)c(OC)c4c2cc1OC)CCN3C(=O)CCC(=O)NCCCN(C)C	NCI-H460 lung	> 100 µM
O=S(=O)(c1ccc(O)c(C=Nc2ccc(Cl)cc2)c1)c1ccc(O)c(C=Nc2ccc(Cl)cc2)c1	NCI-H460 lung	> 100 µM
CCOc1cc(-c2ccc[nH]2)[nH]c1/C=C1\N=C(C)C(C(=O)OC)=C1C	NCI-H460 lung	1.32 µM
COC(=O)c1c(-c2ccc(Cl)cc2)cc2c3ccccc3n(C)c2c1C(=O)OC	NCI-H460 lung	> 100 µM
O=C1c2ccccc2C(=O)c2nc3ccc(Cl)cc3cc21	NCI-H460 lung	> 100 µM
COC(=O)/C(=N/NC(N)=O)C(C(=O)OC)C(=O)C(=O)Nc1ccc(Cl)cc1 (centres undefined)	NCI-H460 lung	> 100 µM
